Readings of DC50 FID for the listed compounds
# System: c-Myc (Pu22) (DNA, G4) TGAGGGTGGGTAGGGTGGGTAA
# measurementNotes: thiazole orange displacement (FID)
# conditionSummary: 140 mM KCl, 20 mM Na cacodylate; pH 7, RT, 10% DMSO; 0.5 μM TO displaced, 0.5 μM DNA
observedProperty: DC50 FID (µM)

* Cc1cc2cc(N)ccc2n1C | 14.53
* O=[N+]([O-])c1ccc2c(c1)c(CNCCN1CCCC1)cn2CCCN1CCCC1 | 3.30
* NCCNCCNCCNCCNCc1n[nH]c2ccccc12 | 15.63
* O=[N+]([O-])c1ccc2[nH]cc(CNCCN3CCCC3)c2c1 | 6.81
* NCCNCCNCCNCCNCc1ccc2c(c1)OCO2 | 18.11
* c1cc2c(cc1CNCCN1CCCC1)OCO2 | 16.11
* CN(C)Cc1c[nH]c2ccc(N)cc12 | 3.83
* CN(C)Cc1c[nH]c2ccc([N+](=O)[O-])cc12 | 19.11
* O=[N+]([O-])c1ccc2c(ccn2CCCN2CCCC2)c1 | 5.01
* Nc1ccc2c(ccn2CCCN2CCCC2)c1 | 6.31
* NCCNCCNCCNCCNCc1c[nH]c2ncccc12 | 16.63
* Cn1ccc2cc(N)ccc21 | 3.71
